For each record, write down the corresponding melting point.

For CCCCCCCCCCCC1=C(O)C(=O)C2=C(Nc3ccccc3C2c2ccc(Br)cc2)C1=O (stereo not drawn) [Compound 4d] the compound record lists melting point as 139 to 140 °C

For CCCCCCCCCCCC1=C(O)C(=O)C2=C(Nc3cc(C)cc(C)c3C2c2ccc([N+](=O)[O-])cc2)C1=O (stereo not drawn) [Compound 4l] the compound record lists melting point as 260 to 262 °C

For CCCCCCCCCCCC1=C(O)C(=O)C2=C(Nc3ccccc3C2c2ccc(C)c(C)c2)C1=O (stereo not drawn) [Compound 4i] the compound record lists melting point as 106 to 108 °C

For CCCCCCCCCCCC1=C(O)C(=O)C2=C(Nc3ccccc3C2c2ccc(F)cc2)C1=O (stereo not drawn) [Compound 4e] the compound record lists melting point as 140 to 142 °C

For CCCCCCCCCCCC1=C(O)C(=O)C2=C(Nc3ccc(OC)cc3C2c2ccc([N+](=O)[O-])cc2)C1=O (stereo not drawn) [Compound 4k] the compound record lists melting point as 153 to 155 °C

For CCCCCCCCCCCC1=C(O)C(=O)C2=C(Nc3ccccc3C2c2ccc(Cl)cc2)C1=O (stereo not drawn) [Compound 4c] the compound record lists melting point as 139 to 141 °C

For CCCCCCCCCCCC1=C(O)C(=O)C2=C(Nc3ccccc3C2c2ccc([N+](=O)[O-])cc2)C1=O (stereo not drawn) [Compound 4a] the compound record lists melting point as 164 to 166 °C

For CCCCCCCCCCCC1=C(O)C(=O)C2=C(Nc3ccccc3C2c2ccccc2)C1=O (stereo not drawn) [Compound 4b] the compound record lists melting point as 161 to 162 °C

For CCCCCCCCCCCC1=C(O)C(=O)C2=C(Nc3ccccc3C2c2ccc(C(=O)OC)cc2)C1=O (stereo not drawn) [Compound 4g] the compound record lists melting point as 146 to 148 °C

###

experiment: MTT cell viability assay (cytotoxicity) in J774 macrophages; type: cell-based, murine; details: mouse; J774 macrophages, 10 μM, 24 h, MTT, mean ± SD, n = 3; read-out: Cell viability (%) J774 macrophages 10 μM
Measurement Name: viability at 24 h, 10 µM
Value and unit, in that order.

For CCCCCCCCCCCC1=C(O)C(=O)C=C(O)C1=O the compound record lists viability at 24 h, 10 µM as 21.3%

###

assay: MTT cell viability assay (cytotoxicity) in J774 macrophages; type: cell-based, murine; details: mouse
The threshold is 90%. Values of viability at 24 h, 10 µM beneath it are tagged Met; values meeting or exceeding it are tagged Not met.

Consider the molecule CCCCCCCCCCCC1=C(O)C(=O)c2c(nc3ccccc3c2-c2ccc(F)cc2)C1=O . Is its viability at 24 h, 10 µM strictly less than 90%? Not met

Consider the molecule CCCCCCCCCCCC1=C(O)C(=O)c2c(nc3cc(C)cc(C)c3c2-c2ccc([N+](=O)[O-])cc2)C1=O . Is its viability at 24 h, 10 µM strictly less than 90%? Met

Consider the molecule CCCCCCCCCCCC1=C(O)C(=O)c2c(nc3ccccc3c2-c2ccc([N+](=O)[O-])cc2)C1=O . Is its viability at 24 h, 10 µM strictly less than 90%? Not met

Consider the molecule CCCCCCCCCCCC1=C(O)C(=O)c2c(nc3ccccc3c2-c2cccc(F)c2)C1=O . Is its viability at 24 h, 10 µM strictly less than 90%? Met

Consider the molecule CCCCCCCCCCCC1=C(O)C(=O)c2c(nc3ccccc3c2-c2ccc(C)c(C)c2)C1=O . Is its viability at 24 h, 10 µM strictly less than 90%? Not met

Consider the molecule CCCCCCCCCCCC1=C(O)C(=O)c2c(nc3ccc(Br)cc3c2-c2ccc([N+](=O)[O-])cc2)C1=O . Is its viability at 24 h, 10 µM strictly less than 90%? Not met

###

assay: MTT cell viability assay (cytotoxicity) in J774 macrophages; type: cell-based, murine; conditions: mouse
Measurement Name: viability at 24 h, 10 µM (%)
Quick reminder: number only, in %, skip the unit.

For CCCCCCCCCCCC1=C(O)C(=O)c2c(nc3ccccc3c2-c2ccccc2)C1=O the compound record lists viability at 24 h, 10 µM as 81.8

For CCCCCCCCCCCC1=C(O)C(=O)C=C(Nc2ccccc2)C1=O the compound record lists viability at 24 h, 10 µM as 56.9

For CCCCCCCCCCCC1=C(O)C(=O)C2=C(Nc3ccc(Br)cc3C2c2ccc([N+](=O)[O-])cc2)C1=O (centres unmarked) the compound record lists viability at 24 h, 10 µM as 94.7

For CCCCCCCCCCCC1=C(O)C(=O)c2c(nc3ccccc3c2-c2ccc(C(=O)OC)cc2)C1=O the compound record lists viability at 24 h, 10 µM as 78.4

For CCCCCCCCCCCC1=C(O)C(=O)C2=C(Nc3ccccc3C2c2ccccc2)C1=O (centres unmarked) the compound record lists viability at 24 h, 10 µM as 99.7

For CCCCCCCCCCCC1=C(O)C(=O)C=C(Nc2ccc(OC)cc2)C1=O the compound record lists viability at 24 h, 10 µM as 68.4

For CCCCCCCCCCCC1=C(O)C(=O)C2=C(Nc3ccccc3C2c2ccc(Cl)cc2)C1=O (centres unmarked) the compound record lists viability at 24 h, 10 µM as 49.1

For CCCCCCCCCCCC1=C(O)C(=O)c2c(nc3ccccc3c2-c2ccc(Cl)cc2)C1=O the compound record lists viability at 24 h, 10 µM as 83.4

###

experiment: MTT cell viability assay (cytotoxicity) in J774 macrophages; type: cell-based, murine; conditions: mouse
For each record, write down the corresponding viability at 24 h, 20 µM.
Quick reminder: number only, in %, skip the unit.

For CCCCCCCCCCCC1=C(O)C(=O)c2c(nc3ccccc3c2-c2ccc(Cl)cc2)C1=O the compound record lists viability at 24 h, 20 µM as 55.8

For CCCCCCCCCCCC1=C(O)C(=O)c2c(nc3ccccc3c2-c2cccc(F)c2)C1=O the compound record lists viability at 24 h, 20 µM as 62.2

For CCCCCCCCCCCC1=C(O)C(=O)c2c(nc3ccccc3c2-c2ccccc2)C1=O the compound record lists viability at 24 h, 20 µM as 63.9

For CCCCCCCCCCCC1=C(O)C(=O)C2=C(Nc3ccccc3C2c2ccsc2)C1=O (stereo not shown) the compound record lists viability at 24 h, 20 µM as 51.4

For CCCCCCCCCCCC1=C(O)C(=O)C2=C(Nc3ccccc3C2c2ccc([N+](=O)[O-])cc2)C1=O (stereo not shown) the compound record lists viability at 24 h, 20 µM as 43.7

For CCCCCCCCCCCC1=C(O)C(=O)C=C(Nc2ccc(Br)cc2)C1=O the compound record lists viability at 24 h, 20 µM as 39.4

For CCCCCCCCCCCC1=C(O)C(=O)c2c(nc3ccc(Br)cc3c2-c2ccc([N+](=O)[O-])cc2)C1=O the compound record lists viability at 24 h, 20 µM as 86.4

###

experiment: MTT cell viability assay (cytotoxicity) in J774 macrophages; format: cell-based, murine; conditions: mouse
Measurement Name: viability at 24 h, 20 µM (%)
Quick reminder: number only, in %, skip the unit.

For CCCCCCCCCCCC1=C(O)C(=O)c2c(nc3ccccc3c2-c2ccc(OC)c(OC)c2)C1=O [Compound 6j] the molecule record lists viability at 24 h, 20 µM as 64

For CCCCCCCCCCCC1=C(O)C(=O)C2=C(Nc3ccccc3C2c2ccc(F)cc2)C1=O (stereo not shown) [Compound 4e] the molecule record lists viability at 24 h, 20 µM as 44.6

For CCCCCCCCCCCC1=C(O)C(=O)c2c(nc3cc(C)cc(C)c3c2-c2ccc([N+](=O)[O-])cc2)C1=O [Compound 6l] the molecule record lists viability at 24 h, 20 µM as 63.8

For CCCCCCCCCCCC1=C(O)C(=O)c2c(nc3ccccc3c2-c2ccc(C)c(C)c2)C1=O [Compound 6i] the molecule record lists viability at 24 h, 20 µM as 75.1

For CCCCCCCCCCCC1=C(O)C(=O)C2=C(Nc3ccc(Br)cc3C2c2ccc([N+](=O)[O-])cc2)C1=O (stereo not shown) [Compound 4m] the molecule record lists viability at 24 h, 20 µM as 77.2

For CCCCCCCCCCCC1=C(O)C(=O)C2=C(Nc3ccccc3C2c2ccccc2)C1=O (stereo not shown) [Compound 4b] the molecule record lists viability at 24 h, 20 µM as 98.7

For CCCCCCCCCCCC1=C(O)C(=O)c2c(nc3ccccc3c2-c2ccc([N+](=O)[O-])cc2)C1=O [Compound 6a] the molecule record lists viability at 24 h, 20 µM as 76.9

###

For each record, write down the corresponding viability at 24 h, 10 µM.
experiment: MTT cell viability assay (cytotoxicity) in H9c2 cardiomyocytes; type: cell-based, rat; conditions: rat; H9c2 cardiomyocytes, 10 μM, 24 h, MTT, mean ± SD, n = 3
Quick reminder: number only, in %, skip the unit.

For CCCCCCCCCCCC1=C(O)C(=O)C=C(Nc2ccccc2)C1=O the compound record lists viability at 24 h, 10 µM as 99

For CCCCCCCCCCCC1=C(O)C(=O)c2c(nc3ccccc3c2-c2ccc(C)c(C)c2)C1=O the compound record lists viability at 24 h, 10 µM as 99.8

For CCCCCCCCCCCC1=C(O)C(=O)c2c(nc3ccccc3c2-c2ccc(OC)c(OC)c2)C1=O the compound record lists viability at 24 h, 10 µM as 85.5

For CCCCCCCCCCCC1=C(O)C(=O)c2c(nc3cc(C)cc(C)c3c2-c2ccc([N+](=O)[O-])cc2)C1=O the compound record lists viability at 24 h, 10 µM as 64.8

For CCCCCCCCCCCC1=C(O)C(=O)c2c(nc3ccccc3c2-c2ccc(Cl)cc2)C1=O the compound record lists viability at 24 h, 10 µM as 95

For CCCCCCCCCCCC1=C(O)C(=O)C=C(O)C1=O the compound record lists viability at 24 h, 10 µM as 36.9

For CCCCCCCCCCCC1=C(O)C(=O)c2c(nc3ccccc3c2-c2ccc(F)cc2)C1=O the compound record lists viability at 24 h, 10 µM as 96.7

For CCCCCCCCCCCC1=C(O)C(=O)c2c(nc3ccccc3c2-c2ccsc2)C1=O the compound record lists viability at 24 h, 10 µM as 75.3

For CCCCCCCCCCCC1=C(O)C(=O)c2c(nc3ccccc3c2-c2cccc(F)c2)C1=O the compound record lists viability at 24 h, 10 µM as 98.3

For CCCCCCCCCCCC1=C(O)C(=O)C=C(Nc2cccc([N+](=O)[O-])c2)C1=O the compound record lists viability at 24 h, 10 µM as 67.8

For CCCCCCCCCCCC1=C(O)C(=O)C=C(Nc2ccc(OC)cc2)C1=O the compound record lists viability at 24 h, 10 µM as 89.3

For CCCCCCCCCCCC1=C(O)C(=O)c2c(nc3ccccc3c2-c2ccccc2)C1=O the compound record lists viability at 24 h, 10 µM as 99.7
